Below, each entry is listed alongside its reported polymerase ribozyme fitness (log ratio).
B1: TPR 5TU (parent)
chain: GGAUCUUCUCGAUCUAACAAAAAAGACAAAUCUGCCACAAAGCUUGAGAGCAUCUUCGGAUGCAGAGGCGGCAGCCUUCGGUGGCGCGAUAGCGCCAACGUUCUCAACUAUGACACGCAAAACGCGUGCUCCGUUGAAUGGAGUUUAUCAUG

Variants of: B1
Assay: polymerase ribozyme fitness, log enrichment relative to wild type (log ratio); higher = more active; in vitro selection for triplet polymerase activity
This sample holds only a part of the variants without activity.
Enter a number only.

> print(dat)
                    mutant.id                        recorded.endpoint  observed.result
 1            C96G A98G G124A  polymerase ribozyme fitness (log ratio)            -1.82
 2                G124U A142C  polymerase ribozyme fitness (log ratio)            -1.75
 3                   C8U U56A  polymerase ribozyme fitness (log ratio)            -3.09
 4                  U53A C57G  polymerase ribozyme fitness (log ratio)            -2.09
 5             A20C G81C C87U  polymerase ribozyme fitness (log ratio)            -1.28
 6       C14A G50A C85U G126C  polymerase ribozyme fitness (log ratio)            -4.17
 7                 G80A G124A  polymerase ribozyme fitness (log ratio)            0.289
 8             C38A U55G A60G  polymerase ribozyme fitness (log ratio)            0.135
 9                  A52C A60G  polymerase ribozyme fitness (log ratio)           -0.764
10  U7C C76U G84A A119U U145G  polymerase ribozyme fitness (log ratio)            -3.32

# variant A40U U53C ; its polymerase ribozyme fitness (log ratio) = 0.103

Summary for this variant, C79U C93A A98U A122U : polymerase ribozyme fitness (log ratio) is -4

polymerase ribozyme fitness (log ratio) measured on U53G G94U A98C = -2.12

Memo: G65C A66C G81A C85G A121G , reported polymerase ribozyme fitness (log ratio): -4.16

Input A20U U82A C93U U145G . Output polymerase ribozyme fitness (log ratio): -2.69

Reported polymerase ribozyme fitness (log ratio) of G59C A119C : -0.18

# polymerase ribozyme fitness (log ratio) (variant: U56A A97U ) is -1.47

// recorded polymerase ribozyme fitness (log ratio) for U56A C57U G83A : 0.0377

For this variant ( A21C G58C U61G U146G ), measured polymerase ribozyme fitness (log ratio) is -3.25

For reference, reported polymerase ribozyme fitness (log ratio) for A89U C99G G126A C132G stands at -4.08

Just so you know, measured polymerase ribozyme fitness (log ratio) for A24G G94C came out at -3.21

Looking up C108U A147C , I found its polymerase ribozyme fitness (log ratio) recorded as -3.44

# polymerase ribozyme fitness (log ratio) of U4C A20G C85A A98C A115G = -2.8

Item: C93A U101G U139C G141C | polymerase ribozyme fitness (log ratio): -3.88

Noted for G58U U82A G84U : its polymerase ribozyme fitness (log ratio) reads -0.648

Documented polymerase ribozyme fitness (log ratio) of C5G U82G G86U A121G : -2.13

The measured polymerase ribozyme fitness (log ratio) associated with C5A A21G G88C reads -4.09

Value of measured polymerase ribozyme fitness (log ratio) for the entry A22C A41U U53C C75U : -2.58

Item: A12U U102G | polymerase ribozyme fitness (log ratio): -3.28

// field: polymerase ribozyme fitness (log ratio); key: C43A U44A C118U ; value = -4.17
